Some compounds, each annotated with its measured pIC50.
Tested on: THP-1 cells
Assay: TNFα generation assay
Type: cell-based, human
Conditions: Homo sapiens, THP-1, THP-1 cells; Table 22; read-out: IC50 in TNFα generation assay
pIC50: −log10 of the molar value.
ASSAY_READOUT: pIC50

{"COMPOUND": "CCC[C@@H](Nc1nc(Nc2ccc(C)nc2)c(C(N)=O)cc1F)[C@H](C)N", "TARGET_DESC": "THP-1 cells", "RESULT": "6.70 to 6.89"}
{"COMPOUND": "NC(=O)c1cc(F)c(N[C@@H]2CCCC[C@@H]2N)nc1Nc1cncc(-c2ccccc2)c1", "TARGET_DESC": "THP-1 cells", "RESULT": "> 7.19"}
{"COMPOUND": "NC(=O)c1cc(F)c(N[C@@H]2CCCC[C@@H]2N)nc1Nc1cnc(-n2cccn2)c(-n2nccn2)c1", "TARGET_DESC": "THP-1 cells", "RESULT": "6.70 to 6.89"}
{"COMPOUND": "CCC[C@@H](Nc1nc(Nc2cncc(Cl)c2)c(C(N)=O)cc1F)[C@H](C)N", "TARGET_DESC": "THP-1 cells", "RESULT": "6.89 to 7.19"}
{"COMPOUND": "COc1cc(Nc2nc(N[C@@H](CN)CC(C)C)c(F)cc2C(N)=O)cc(OC)n1", "TARGET_DESC": "THP-1 cells", "RESULT": "6.70 to 6.89"}
{"COMPOUND": "CC(C)C[C@H](CN)Nc1nc(Nc2ccc3nccnc3c2)c(C(N)=O)cc1F", "TARGET_DESC": "THP-1 cells", "RESULT": "6.70 to 6.89"}
{"COMPOUND": "COc1ccc2cc(Nc3nc(N[C@H](CC(C)C)[C@H](C)N)c(F)cc3C(N)=O)cnc2c1", "TARGET_DESC": "THP-1 cells", "RESULT": "6.70 to 6.89"}
{"COMPOUND": "CCc1ncc(Nc2nc(N[C@@H]3CCCC[C@@H]3N)c(F)cc2C(N)=O)cc1F", "TARGET_DESC": "THP-1 cells", "RESULT": "6.70 to 6.89"}
{"COMPOUND": "NC(=O)c1cc(F)c(NCC(N)c2ccccc2)nc1Nc1ccc2ncccc2c1 (stereo not drawn)", "TARGET_DESC": "THP-1 cells", "RESULT": "> 7.19"}

====

Tested on: THP-1 cells
Assay: TNFα generation assay
Format: cell-based, human
Conditions: Homo sapiens, THP-1, THP-1 cells; Table 22; read-out: IC50 in TNFα generation assay
ASSAY_READOUT: IC50

{"CHEMICAL_STRUCTURE": "CC[C@@H](Nc1nc(Nc2cncc(-c3ccc(OC)cc3)c2)c(C(N)=O)cc1F)[C@H](C)N", "RESULT": "65 to 130 nM"}
{"CHEMICAL_STRUCTURE": "COc1ccc(-c2cncc(Nc3nc(N[C@@H](CN)CC(C)C)c(F)cc3C(N)=O)c2)cc1", "RESULT": "130 to 200 nM"}
{"CHEMICAL_STRUCTURE": "CC[C@@H](Nc1nc(Nc2ccc3c(c2)c(C2CC2)nn3C)c(C(N)=O)cc1F)[C@H](C)N", "RESULT": "65 to 130 nM"}
{"CHEMICAL_STRUCTURE": "NC(=O)c1cc(F)c(N[C@@H]2CCCC[C@@H]2N)nc1Nc1cnc2c([N+](=O)[O-])cccc2c1", "RESULT": "65 to 130 nM"}

====

# IC50 values compiled below
Target: glutathione S-transferase (GST)-fused full-length human Syk protein (Homo sapiens)
Construct: (GST)-fused full-length human Syk protein; GST (glutathione S-transferase); purchased Carna Biosciences
Assay: Syk enzyme assay
Type: biochemical
Settings: Syk enzyme assay, Test Example 1; read-out: IC50 of Syk-inhibitory activity

{"COMPOUND": "Cc1nc2ccc(Nc3nc(N[C@H](C)[C@H](C)N)c(F)cc3C(N)=O)cc2nc1C (racemic)", "IC50": "10 to 50 nM"}
{"COMPOUND": "COc1cc(Nc2nc(NCC3CC3)c(F)cc2C(N)=O)cc(OC)c1", "IC50": "100 to 1000 nM"}
{"COMPOUND": "Cc1ncc(Nc2nc(N[C@@H]3CCCC[C@@H]3N)c(F)cc2C(N)=O)cc1-n1ccnn1 (relative stereo)", "IC50": "10 to 50 nM"}
{"COMPOUND": "CCC[C@@H](Nc1nc(Nc2ccc(C)nc2)c(C(N)=O)cc1F)[C@H](C)N", "IC50": "10 to 50 nM"}
{"COMPOUND": "NC(=O)c1cc(F)c(NCC(N)C2CC2)nc1Nc1ccc2ncccc2c1 (stereo not drawn)", "IC50": "10 to 50 nM"}
{"COMPOUND": "Cc1cncc(Nc2nc(NC[C@@H](N)c3ccccc3)c(F)cc2C(N)=O)c1", "IC50": "100 to 1000 nM"}
{"COMPOUND": "CCCC[C@H](CN)Nc1nc(Nc2cncc(C3CC3)c2)c(C(N)=O)cc1F", "IC50": "< 10 nM"}
{"COMPOUND": "CC[C@@H](Nc1nc(Nc2cncc(-c3ccc(OC)cc3F)c2)c(C(N)=O)cc1F)[C@H](C)N", "IC50": "< 10 nM"}
{"COMPOUND": "COCCOc1cccc2cc(Nc3nc(N[C@@H]4CCCC[C@@H]4N)c(F)cc3C(N)=O)cnc12 (relative stereo)", "IC50": "< 10 nM"}
{"COMPOUND": "COc1ccc2cc(Nc3nc(N[C@@H](CN)CC(C)C)c(F)cc3C(N)=O)cnc2c1", "IC50": "< 10 nM"}
{"COMPOUND": "C[C@H](N)CNc1nc(Nc2cnc3ccccc3c2)c(C(N)=O)cc1F", "IC50": "< 10 nM"}
{"COMPOUND": "Cc1cc(Nc2nc(N[C@H](CCCN)[C@H](C)N)c(F)cc2C(N)=O)cnc1C", "IC50": "100 to 1000 nM"}

====

Each entry below carries its reported pIC50.
Molecular target: glutathione S-transferase (GST)-fused full-length human Syk protein (Homo sapiens, UniProt P43405)
Construct: (GST)-fused full-length human Syk protein; GST (glutathione S-transferase); purchased Carna Biosciences
Assay: Syk enzyme assay
Format: biochemical
Settings: Syk enzyme assay, Test Example 1; read-out: IC50 of Syk-inhibitory activity
pIC50: −log10 of the molar value.
ASSAY_READOUT: pIC50

{"COMPOUND": "NC(=O)c1cc(F)c(NC2CCCCC2N)nc1Nc1ccc2cc(Cl)cnc2c1 (stereo not drawn)", "RESULT": "7.30 to 8.00"}
{"COMPOUND": "COc1nn(C)c2ccc(Nc3nc(N[C@H](CC4CC4)[C@H](C)N)c(F)cc3C(N)=O)cc12", "RESULT": "> 8.00"}
{"COMPOUND": "CC[C@@H](Nc1nc(Nc2ccc3nc(OCCOC)ccc3c2)c(C(N)=O)cc1F)[C@H](C)N", "RESULT": "> 8.00"}
{"COMPOUND": "C[C@H](N)[C@@H](C)Nc1nc(Nc2ccc3ncccc3c2)c(C(N)=O)cc1F [Example 006-275]", "RESULT": "> 8.00"}
{"COMPOUND": "COCC(C)Oc1ccc2cc(Nc3nc(NC4CCCCC4N)c(F)cc3C(N)=O)ccc2n1 (stereo not drawn)", "RESULT": "> 8.00"}
{"COMPOUND": "NC(=O)c1cc(F)c(N[C@@H]2CCCC[C@@H]2N)nc1Nc1cnc(N2CCOCC2)c(-n2cccn2)c1", "RESULT": "7.00 to 7.30"}
{"COMPOUND": "Cn1ncc2cc(Nc3nc(NC[C@@H](N)c4ccccc4)c(F)cc3C(N)=O)ccc21", "RESULT": "7.30 to 8.00"}
{"COMPOUND": "CCC[C@@H](Nc1nc(Nc2ccnc(-c3ccccc3F)c2)c(C(N)=O)cc1F)[C@H](C)N", "RESULT": "> 8.00"}
{"COMPOUND": "CCC(N)CNc1nc(Nc2ccc3ncccc3c2)c(C(N)=O)cc1F (stereo not drawn) [Example 014-004]", "RESULT": "7.30 to 8.00"}

====

Test system: THP-1 cells
Test: TNFα generation assay
Type: cell-based, human
Conditions: Homo sapiens, THP-1, THP-1 cells; Table 22; read-out: IC50 in TNFα generation assay
compounds and their reported IC50

{"COMPOUND": "COCCOc1nccc2cc(Nc3nc(N[C@@H]4CCCC[C@@H]4N)c(F)cc3C(N)=O)ccc12 (relative stereo)", "IC50": "130 to 200 nM"}
{"COMPOUND": "CCOCCOCCOc1ccc2cc(Nc3nc(NC4CCCCC4N)c(F)cc3C(N)=O)ccc2n1 (stereo not shown)", "IC50": "130 to 200 nM"}
{"COMPOUND": "CC(C)CC(Nc1nc(Nc2ccc3ncccc3c2)c(C(N)=O)cc1F)[C@H](C)N (stereo partly shown)", "IC50": "130 to 200 nM"}
{"COMPOUND": "CC(C)C[C@@H](Nc1nc(Nc2ccc3c(cnn3C)c2)c(C(N)=O)cc1F)[C@H](C)N", "IC50": "< 65 nM"}

Data provenance is patent US8895585B2.
